Attribution: patent US20220348647A1

measuredTarget: T1, human CCL17 (human, UniProt Q92583 24-94)
T1 sequence: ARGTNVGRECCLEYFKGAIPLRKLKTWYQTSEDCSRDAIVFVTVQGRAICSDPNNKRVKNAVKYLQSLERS
assayText: cell-based or functional assay
observable: IC50 (nM), calcium flux assay in CCRF-CEM cells, 10 ng/ml human CCL17
Answers are plain numbers, in nM.

Recorded results for 2 binders are shown here.
Consider C17B241 (antibody, V domains shown, Full IgG1, kappa) VH: EVQLVQSGAEVKKPGESLKISCKGSGYSFTSYWIGWVRQMPGKGLEWMGIIDPSDSDTRYSPSFQGQVTISADKSISTAYLQWSSLKASDTAMYYCARVGPADVWDSFDYWGQGTLVTVSS VL: DIVMTQSPDSLAVSLGERATINCKSSQSVLNSFTNNNALAWYQQKPGQPPKLLIYEASTRESGVPDRFSGSGSGTDFTLTISSLQAEDVAVYYCQQTNSIPLTFGQGTKVEIK . Its measured IC50 (nM), calcium flux assay in CCRF-CEM cells, 10 ng/ml human CCL17 is 0.456

Consider C17B240 (antibody, V domains shown, Full IgG1, kappa) VH: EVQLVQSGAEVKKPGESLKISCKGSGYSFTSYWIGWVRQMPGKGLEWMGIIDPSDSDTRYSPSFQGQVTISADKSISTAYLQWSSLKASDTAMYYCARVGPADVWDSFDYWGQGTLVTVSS VL: DIVMTQSPDSLAVSLGERATINCKSSQSVLYSHVNYNALAWYQQKPGQPPKLLIYNASTRESGVPDRFSGSGSGTDFTLTISSLQAEDVAVYYCQQYYTLPATFGQGTKVEIK . Its measured IC50 (nM), calcium flux assay in CCRF-CEM cells, 10 ng/ml human CCL17 is 0.405

For the next question, use this binder.
Consider C17B236 (antibody, V domains shown, Full IgG1, kappa) VH: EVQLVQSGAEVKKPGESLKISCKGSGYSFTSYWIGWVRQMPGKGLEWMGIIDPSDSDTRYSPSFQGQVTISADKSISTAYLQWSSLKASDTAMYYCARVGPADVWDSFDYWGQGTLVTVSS VL: DIVMTQSPDSLAVSLGERATINCKSSQSVLLSPWNSNQLAWYQQKPGQPPKLLIYGASTRESGVPDRFSGSGSGTDFTLTISSLQAEDVAVYYCQQYYLIPSTFGQGTKVEIK . Its measured IC50 (nM), calcium flux assay in CCRF-CEM cells, 10 ng/ml human CCL17 is 0.385
